Items are presented alongside their recorded max response.
System: KB-3-1
protocol-description: Cytotoxic Profiling of Annotated Libraries Using Quantitative High-Throughput Screening (AID 1296008); note: % is set by controls: 0 for no effect and ±100 for the full control effect; nearly all actives have a fitted effect of over 60% in size
measurement-parameters: Five cell lines viability, CellTiter-Glo ATP luminescence, 48-72 h; active compounds read low
Results filed as inconclusive are left out. Calls of active or inactive are those of the source. Calls come from the whole dose curve; as a rule, active = well fitted inhibition curve with a large enough effect; inconclusive = small, poorly fitted or top-dose-only effect; inactive = flat fitted curve, though single readings scatter.
parameter-measured: max response

{"compound": "O=C(Cc1cccs1)N[C@@H]1C(=O)N2C(C(=O)[O-])=C(C[n+]3ccccc3)CS[C@H]12", "result": "6.88% (inactive)"}
{"compound": "CC1=CC(=O)NS(=O)(=O)O1", "result": "-8.51% (inactive)"}
{"compound": "COC(=O)C(CN)c1c[nH]c2ccc(OC)cc12 (centres undefined)", "result": "9.41% (inactive)"}
{"compound": "CC(C)C[C@H](NC(=O)[C@@H](Cc1c[nH]c2ccccc12)NC(=O)[C@H](Cc1ccc(O)cc1)NC(=O)[C@H](CO)NC(=O)[C@H](Cc1c[nH]c2ccccc12)NC(=O)[C@H](Cc1cnc[nH]1)NC(=O)[C@@H]1CCC(=O)N1)C(=O)N[C@@H](CCCN=C(N)N)C(=O)N1CCC[C@@H]1C(=O)NCC(N)=O", "result": "0.539% (inactive)"}
{"compound": "CC(=O)Oc1cccc(C(=O)O)c1OC(C)=O", "result": "-11.2% (inactive)"}
{"compound": "COc1ccc2c(c1)OC(C)(C)C(c1ccccc1)C2c1ccc(OCCN2CCCC2)cc1 (centres undefined)", "result": "-26.5% (inactive)"}
{"compound": "O=C(O)COc1ccc(CCNS(=O)(=O)c2ccccc2)s1", "result": "-3.19% (inactive)"}
{"compound": "CN(CCO)CC(O)Cn1cnc2c1c(=O)n(C)c(=O)n2C (centres undefined) (tested in a mixture with another compound)", "result": "-4.03% (inactive)"}
{"compound": "C[C@H](CCC(=O)O)[C@H]1CC[C@H]2[C@@H]3[C@H](O)C[C@@H]4C[C@H](O)CC[C@]4(C)[C@H]3C[C@H](O)[C@]12C", "result": "1.07% (inactive)"}
{"compound": "Nc1nc(NC2CC2)c2ncn([C@@H]3C=C[C@@H](CO)C3)c2n1", "result": "3.44% (inactive)"}
{"compound": "O=C(OC1C[C@@H]2CC3C[C@H](C1)N2CC3=O)c1c[nH]c2ccccc12 (some centres undefined)", "result": "-14.8% (inactive)"}
{"compound": "NCC[C@H](O)C(=O)N[C@@H]1C[C@H](N)[C@@H](O[C@H]2O[C@H](CN)[C@@H](O)[C@H](O)[C@H]2O)[C@H](O)[C@H]1O[C@H]1O[C@H](CO)[C@@H](O)[C@H](N)[C@H]1O", "result": "3.67% (inactive)"}
{"compound": "CC1=C(/C=C/C(C)=C/C=C/C(C)=C/C(=O)Oc2c(C)c(C)c3c(c2C)CC[C@@](C)(CCC[C@H](C)CCC[C@H](C)CCCC(C)C)O3)C(C)(C)CCC1", "result": "-1.1% (inactive)"}
{"compound": "C[C@]12CC[C@@H]3c4ccc(OC(=O)c5ccccc5)cc4CC[C@H]3[C@@H]1CC[C@@H]2O", "result": "-12.6% (inactive)"}
{"compound": "C[C@H](CCC(=O)O)[C@H]1CC[C@H]2[C@@H]3CC[C@@H]4C[C@H](O)CC[C@]4(C)[C@H]3C[C@H](O)[C@]12C", "result": "-0.187% (inactive)"}
{"compound": "COC(=O)CC[C@H](N)C(=O)O", "result": "0.526% (inactive)"}
{"compound": "O=C(O)c1ccc(NC2OC[C@@H](O)[C@H](O)[C@H]2O)cc1 (some centres undefined)", "result": "-17.7% (inactive)"}
{"compound": "FC(F)(F)C(F)(F)C(F)(F)C(F)(F)C(F)(F)F", "result": "-12.9% (inactive)"}
{"compound": "Cc1ncc(C[n+]2csc(CCOP(=O)(O)O)c2C)c(N)n1", "result": "-2.14% (inactive)"}
{"compound": "CCCCC(O)c1ccccc1 (centres undefined)", "result": "6.09% (inactive)"}
{"compound": "COC1[C@@H](O[C@@H]2O[C@H](C)[C@@H](O[C@H]3C[C@@](C)(O)[C@H](OC(=O)CC(C)C)[C@H](C)O3)[C@H](N(C)C)[C@H]2O)[C@@H](CC=O)C[C@@H](C)[C@@H](O)/C=C/C=C/C[C@@H](C)OC(=O)C[C@H]1OC(C)=O (some centres undefined)", "result": "-19.6% (inactive)"}
{"compound": "Cc1ccc(C(C)(C)c2ccc(C)cc2)cc1", "result": "-2.63% (inactive)"}
{"compound": "CC[C@H](CC[C@@H](C)[C@H]1CC[C@H]2[C@@H]3CC=C4C[C@@H](O)CC[C@]4(C)[C@H]3CC[C@]12C)C(C)C", "result": "-4.33% (inactive)"}
{"compound": "CC(=O)Nc1c(I)c(C(=O)O)c(I)c(N(C)C(C)=O)c1I", "result": "3.77% (inactive)"}
